# testedSystem: CFTR (Homo sapiens)
# Sequence (P13569 with tags, fused parts or gaps DEL508-508): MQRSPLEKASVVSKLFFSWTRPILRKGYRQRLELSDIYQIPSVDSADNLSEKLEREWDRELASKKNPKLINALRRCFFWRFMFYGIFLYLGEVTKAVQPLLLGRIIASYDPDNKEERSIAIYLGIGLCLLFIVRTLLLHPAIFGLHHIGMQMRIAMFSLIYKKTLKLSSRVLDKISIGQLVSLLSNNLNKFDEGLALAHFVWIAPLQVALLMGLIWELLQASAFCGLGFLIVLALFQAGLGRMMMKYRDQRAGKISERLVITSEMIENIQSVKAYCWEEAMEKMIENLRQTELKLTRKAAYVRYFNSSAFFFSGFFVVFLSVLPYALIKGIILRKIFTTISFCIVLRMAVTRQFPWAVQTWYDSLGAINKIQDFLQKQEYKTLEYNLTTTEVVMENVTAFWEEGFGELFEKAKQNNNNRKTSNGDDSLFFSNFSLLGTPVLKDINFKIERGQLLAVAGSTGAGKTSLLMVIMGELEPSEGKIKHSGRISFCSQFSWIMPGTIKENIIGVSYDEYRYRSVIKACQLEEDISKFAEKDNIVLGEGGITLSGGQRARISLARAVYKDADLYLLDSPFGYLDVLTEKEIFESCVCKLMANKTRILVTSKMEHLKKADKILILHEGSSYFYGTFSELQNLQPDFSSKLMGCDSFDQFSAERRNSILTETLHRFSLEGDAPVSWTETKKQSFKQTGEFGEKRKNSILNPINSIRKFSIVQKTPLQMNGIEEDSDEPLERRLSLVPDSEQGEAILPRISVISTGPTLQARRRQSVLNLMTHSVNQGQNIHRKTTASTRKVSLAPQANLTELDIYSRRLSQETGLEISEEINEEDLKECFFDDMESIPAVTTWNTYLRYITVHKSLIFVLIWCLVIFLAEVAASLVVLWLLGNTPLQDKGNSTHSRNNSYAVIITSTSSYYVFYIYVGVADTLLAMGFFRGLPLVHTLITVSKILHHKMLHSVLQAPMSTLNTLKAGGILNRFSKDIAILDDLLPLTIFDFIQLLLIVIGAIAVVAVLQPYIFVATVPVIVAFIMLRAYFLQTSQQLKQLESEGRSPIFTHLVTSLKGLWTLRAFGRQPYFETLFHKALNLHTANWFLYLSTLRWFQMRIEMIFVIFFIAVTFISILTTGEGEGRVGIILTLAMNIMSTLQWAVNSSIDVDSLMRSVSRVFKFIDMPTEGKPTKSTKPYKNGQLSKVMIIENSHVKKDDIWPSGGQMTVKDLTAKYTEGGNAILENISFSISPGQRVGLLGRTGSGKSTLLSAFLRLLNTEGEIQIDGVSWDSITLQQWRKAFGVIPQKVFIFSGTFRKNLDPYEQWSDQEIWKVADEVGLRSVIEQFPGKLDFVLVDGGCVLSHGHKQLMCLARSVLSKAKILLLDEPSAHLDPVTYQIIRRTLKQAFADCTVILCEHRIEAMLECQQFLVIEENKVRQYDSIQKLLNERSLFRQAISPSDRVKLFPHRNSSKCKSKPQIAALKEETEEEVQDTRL
# assayMethodText: Membrane Potential Dye, Enteroid Assay A
# Assay type: cell-based
# particulars: Table 9; read-out: Ent. A EC50
pEC50: −log10 of the molar value.
Task for the reader: assign each of the following compounds its reported pEC50.

Example entries begin here.
compound="Cc1cnn(C)c1-c1cc2nc(n1)NS(=O)(=O)c1cccc(c1)C(=O)N[C@H](CC(C)C)CO2 [Compound 179]" measurementname=pEC50 observed="4.52 to 5.52"
compound="Cc1cccc(C)c1-c1cc2nc(n1)NS(=O)(=O)c1cccc(c1)C(=O)N[C@@H]1CN(C3CC4(CCCC4)C3)C[C@H]1O2 [Compound 56]" measurementname=pEC50 observed="> 6.00"
compound="Cc1cccc(C)c1-c1cc2nc(n1)NS(=O)(=O)c1cccc(c1)C(=O)N[C@@H]1CN(Cc3ccc(C(C)(C)C)cc3)C[C@H]1O2 [Compound 63]" measurementname=pEC50 observed="> 6.00"
compound="Cc1cccc(C)c1-c1cc2nc(n1)NS(=O)(=O)c1cccc(c1)C(=O)N[C@@H](CC(C)C)CCO2 [Compound 224]" measurementname=pEC50 observed="5.52 to 6.00"
compound="Cc1cccc(C)c1-c1cc2nc(n1)NS(=O)(=O)c1cccc(c1)C(=O)NC[C@@H](c1ccc(CC(C)(C)C)cc1)O2 [Compound 263]" measurementname=pEC50 observed="> 6.00"

Provide reported pEC50 for each item, in the same order as listed.
1. Cc1cccc(CO)c1-c1cc2nc(n1)NS(=O)(=O)c1cccc(c1)C(=O)N[C@H](CC(C)C)CO2 [Compound 395]
2. CC[C@H]1NC(=O)c2cccc(c2)S(=O)(=O)Nc2nc(cc(-c3c(C)cccc3C)n2)O[C@H]1c1ccc(C(C)(C)C)cc1 [Compound 132]
3. Cc1cccc(C)c1-c1cc2nc(n1)NS(=O)(=O)c1cccc(c1)C(=O)N[C@@H](C)[C@H](c1ccc(C(C)(C)C)cc1)O2 [Compound 228]
4. Cc1cccc(C)c1-c1cc2nc(n1)NS(=O)(=O)c1cccc(c1)C(=O)N[C@@H](CC(C)(C)C)[C@H](C)O2 [Compound 130]
5. Cc1cccc(C)c1-c1cc2nc(n1)NS(=O)(=O)c1cccc(c1)C(=O)N[C@@H](C(CC(C)C)c1ccccc1)CO2 (stereo in doubt) [Compound 181]
6. COC[C@H]1NC(=O)c2cccc(c2)S(=O)(=O)Nc2nc(cc(-c3c(C)cccc3C)n2)O[C@@H]1c1ccc(C(C)(C)C)cc1 (single isomer, unassigned) [Compound 44]

Reply |
1: 4.52 to 5.52; 2: > 6.00; 3: > 6.00; 4: > 6.00; 5: > 6.00; 6: > 6.00

I need pEC50 for every entry listed below, if you could help.
1. CCC(CC)(CC)c1ccc(C2CNC(=O)c3cccc(c3)S(=O)(=O)Nc3nc(cc(-c4c(C)cccc4C)n3)O2)cc1 (stereo not shown) [Compound 266]
2. CC[C@H]1NC(=O)c2cccc(c2)S(=O)(=O)Nc2nc(cc(-c3c(C)cccc3C)n2)O[C@@H]1c1ccc(C(C)(C)C)cc1 [Compound 133]

Reply |
> 6.00
> 6.00
